tested on: HCC1599; experiment: normalised response (% of control), CellTox Green; higher = less cell death (100 = DMSO, 0 = benzethonium chloride kill control); conditions: incubation time: 72 h
For each record, write down the corresponding normalised response.
Give bare numbers, in %.

Example cases with answers are listed next.
>  <molecule>
CC/C(=C(\c1ccc(O)cc1)c1ccc(OCCN(C)C)cc1)c1ccccc1 [4-hydroxytamoxifen] (1000 nM)

>  <measured>
95.8

$$$$
>  <molecule>
O=C(NC[C@H](O)CO)c1ccncc1Nc1ccc(I)cc1F [Pimasertib] (100 nM)

>  <measured>
118

$$$$
>  <molecule>
Nc1cccc2c1CN(C1CCC(=O)NC1=O)C2=O (configuration not stated) [Lenalidomide] (1000 nM)

>  <measured>
105

$$$$
>  <molecule>
COc1cc(CCc2cc(NC(=O)c3ccc(N4CC(C)NC(C)C4)cc3)n[nH]2)cc(OC)c1 (configuration not stated) [AZD4547] (100 nM)

>  <measured>
90.6

$$$$
>  <molecule>
CC(=O)OC[C@H]1O[C@@H]([S-])[C@H](OC(C)=O)[C@@H](OC(C)=O)[C@@H]1OC(C)=O.CCP(CC)CC.[Au+] [Auranofin] (2500 nM)

>  <measured>
96.3

$$$$

List normalised response for every entry below, keeping the order given.
1. Cc1ccc(Nc2nccc(N(C)c3ccc4c(C)n(C)nc4c3)n2)cc1S(N)(=O)=O [Pazopanib] (1000 nM)
2. CS(=O)(=O)N1CCN(Cc2cc3nc(-c4cccc5[nH]ncc45)nc(N4CCOCC4)c3s2)CC1 [Pictilisib] (100 nM)

Resp:
105
108

* * *

Please go through the items and note down their drug sensitivity score.
tested on: MDA-MB-436; test: drug sensitivity score (DSS), CellTiter-Glo (DSS (AUC-based score)); higher = stronger drug effect (viability inhibition or cytotoxicity); extreme values may be limits of the assay; settings: incubation time: 72 h
Numbers only.

// worked examples, drug sensitivity score included
>  <molecule>
C[C@]12C=CC(=O)C=C1CC[C@@H]1[C@@H]2[C@@H](O)C[C@@]2(C)[C@H]1CC[C@]2(O)C(=O)CO

>  <measured>
0

$$$$
>  <molecule>
CCCCC/C=C/C=C1/C(=O)C=C[C@@H]1C/C=C\CCCC(=O)O [15D-PGJ2]

>  <measured>
0

$$$$
>  <molecule>
Nc1ccccc1NC(=O)c1ccc(CNc2nccc(-c3cccnc3)n2)cc1

>  <measured>
5.31

$$$$
>  <molecule>
CCN(CC)CCNC(=O)c1c(C)[nH]c(/C=C2\C(=O)Nc3ccc(F)cc32)c1C

>  <measured>
0

$$$$

I have 2 molecules here; please give me drug sensitivity score for each one.
1. Cc1cccc(-c2nn3c(c2-c2ccnc4ccc(C(N)=O)cc24)CCC3)n1
2. CC/C(=C(\c1ccc(O)cc1)c1ccc(OCCN(C)C)cc1)c1ccccc1 [4-hydroxytamoxifen]

Resp:
[0, 1.6]

* * *

test system: MDA-MB-231; experiment: normalised response (% of control), CellTiter-Glo; higher = more viable cells (100 = DMSO, 0 = benzethonium chloride kill control); conditions: incubation time: 72 h
measurement name: normalised response (%)
Numbers only, in %.

Use these answered entries as a reference point.
>  <compound>
Cc1c(Cn2c(C)nc3c(C(=O)O)cc(N4CCOCC4)cc32)cccc1C(F)(F)F (1 nM)

>  <tested system>
MDA-MB-231

>  <measurement name>
normalised response

>  <measured>
107

$$$$
>  <compound>
Cc1nc(Nc2ncc(C(=O)Nc3c(C)cccc3Cl)s2)cc(N2CCN(CCO)CC2)n1 [Dasatinib] (0.1 nM)

>  <tested system>
MDA-MB-231

>  <measurement name>
normalised response

>  <measured>
93.9

$$$$
>  <compound>
O=C(CCBr)N1CCN(C(=O)CCBr)CC1 [Pipobroman] (1000 nM)

>  <tested system>
MDA-MB-231

>  <measurement name>
normalised response

>  <measured>
99.5

$$$$

The following compounds each have a reported value; give each one's normalised response.
1. O=C(NC[C@H](O)CO)c1ccncc1Nc1ccc(I)cc1F [Pimasertib] (10 nM)
2. Cc1ccc(Nc2nccc(N(C)c3ccc4c(C)n(C)nc4c3)n2)cc1S(N)(=O)=O [Pazopanib] (1000 nM)
3. Cc1nc(Nc2ncc(C(=O)Nc3c(C)cccc3Cl)s2)cc(N2CCN(CCO)CC2)n1 [Dasatinib] (1 nM)
4. CCC/C=C/C=C/C(=O)O[C@H]1/C(=C/C(=O)OC)C[C@H]2C[C@H]([C@@H](C)O)OC(=O)C[C@H](O)C[C@@H]3C[C@H](OC(C)=O)C(C)(C)[C@](O)(C[C@@H]4C/C(=C/C(=O)OC)C[C@H](/C=C/C(C)(C)[C@]1(O)O2)O4)O3 [Bryostatin 1] (0.01 nM)

Resp:
[97.6, 106, 87.9, 105]

Give normalised response for each listed item.
1. CS(=O)(=O)N1CCN(Cc2cc3nc(-c4cccc5[nH]ncc45)nc(N4CCOCC4)c3s2)CC1 [Pictilisib] (1 nM)
2. CC[C@@]1(O)C(=O)OCc2c1cc1n(c2=O)Cc2cc3c(CN(C)C)c(O)ccc3nc2-1 [Topotecan] (1 nM)
3. CCC/C=C/C=C/C(=O)O[C@H]1/C(=C/C(=O)OC)C[C@H]2C[C@H]([C@@H](C)O)OC(=O)C[C@H](O)C[C@@H]3C[C@H](OC(C)=O)C(C)(C)[C@](O)(C[C@@H]4C/C(=C/C(=O)OC)C[C@H](/C=C/C(C)(C)[C@]1(O)O2)O4)O3 [Bryostatin 1] (10 nM)

Resp:
[101, 97.9, 89.2]

I'm hoping you can list normalised response for every compound here, please.
1. Cc1c(CN2CCN(C(=O)[C@H](C)O)CC2)sc2c(N3CCOCC3)nc(-c3cnc(N)nc3)nc12 [GDC-0980] (1 nM)
2. CC/C(=C(\c1ccc(O)cc1)c1ccc(OCCN(C)C)cc1)c1ccccc1 [4-hydroxytamoxifen] (1 nM)
3. c1cc(CN2CCCNCCNCCCNCC2)ccc1CN1CCCNCCNCCCNCC1 [Plerixafor] (1 nM)

Resp:
[109, 96.6, 96.9]

* * *

tested on: CAL-120; conditions: 72 h
measurement name: EC50, CellTiter-Glo (nM)
Answers are plain numbers, in nM.

Here's what some known entries look like.
>  <compound structure>
C[C@]12O[C@H](C[C@]1(O)CO)n1c3ccccc3c3c4c(c5c6ccccc6n2c5c31)CNC4=O

>  <scale unit>
nM

>  <EC50, CellTiter-Glo>
45.1

$$$$
>  <compound structure>
O=C(Nc1c[nH]nc1-c1nc2ccc(CN3CCOCC3)cc2[nH]1)NC1CC1

>  <scale unit>
nM

>  <EC50, CellTiter-Glo>
146

$$$$

Please examine the following record next.
Req: I'm curious: which EC50, CellTiter-Glo was measured for COc1ccc(-c2cc3c(C)nc(N)nc3n([C@H]3CC[C@H](OCCO)CC3)c2=O)cn1 tested on CAL-120?
Resp: 123

* * *

system: HDQ-P1; test: normalised viability (% of control), CellTiter-Blue; higher = more viable cells (about 100 = DMSO control); details: 10 nM; incubation time: 72 h
Give measured normalised viability for each item. Keep answers brief.
Answers are plain numbers, in %.

Field: example entries. Status: answers known.
>  <compound structure>
Cc1c(CN2CCN(C(=O)[C@H](C)O)CC2)sc2c(N3CCOCC3)nc(-c3cnc(N)nc3)nc12

>  <normalised viability [%]>
94

$$$$
>  <compound structure>
COc1ccc(-c2cc3c(C)nc(N)nc3n([C@H]3CC[C@H](OCCO)CC3)c2=O)cn1

>  <normalised viability [%]>
82

$$$$
>  <compound structure>
C[C@]12C=CC(=O)C=C1CC[C@@H]1[C@@H]2[C@@H](O)C[C@@]2(C)[C@H]1CC[C@]2(O)C(=O)CO

>  <normalised viability [%]>
108

$$$$

Moving on to another compound below.
Req: Item under review: O=C(Nc1c[nH]nc1-c1nc2ccc(CN3CCOCC3)cc2[nH]1)NC1CC1 . Reported normalised viability?
Resp: 112

* * *

test system: HCC1143; test: normalised response (% of control), CellTox Green; higher = less cell death (100 = DMSO, 0 = benzethonium chloride kill control); details: incubation time: 72 h
Kindly state normalised response for each of the entries shown.
Answers are plain numbers, in %.

>  <compound>
c1cc(CN2CCCNCCNCCCNCC2)ccc1CN1CCCNCCNCCCNCC1 [Plerixafor] (100 nM)

>  <measurement name>
normalised response

>  <measured>
95.1

$$$$
>  <compound>
Nc1cccc2c1CN(C1CCC(=O)NC1=O)C2=O (centres undefined) [Lenalidomide] (1000 nM)

>  <measurement name>
normalised response

>  <measured>
111

$$$$
>  <compound>
CC/C(=C(\c1ccc(O)cc1)c1ccc(OCCN(C)C)cc1)c1ccccc1 [4-hydroxytamoxifen] (100 nM)

>  <measurement name>
normalised response

>  <measured>
115

$$$$

Shifting focus to the compound that follows.
Req: Field request: normalised response | item: COc1ccc(-c2cc3c(C)nc(N)nc3n([C@H]3CC[C@H](OCCO)CC3)c2=O)cn1 (100 nM)
Resp: 66.1
